assay: qHTS assay to identify small molecule antagonists of the estrogen receptor alpha (ER-alpha) signaling pathway using the BG1 cell line - cell viability counter screen (AID 743081); conditions: BG1Luc4E2 viability, CellTiter-Fluor, 22 h; series mostly up to 70.3 µM;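 also: compound given together with 17beta-estradiol as the ER stimulus; nearly all actives have a fitted effect of over 45% in size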
Results filed as inconclusive are left out. The source made the active and inactive calls. Calls follow the shape of the dose curve; as a rule, active = well fitted cell-killing curve with a large enough effect in the repeat runs; inconclusive = weak or mixed curves, or effect the other way; inactive = flat fitted curve, though single readings scatter. Positions of bridges follow the written chain, without caps; N, C: chain ends. Non-standard residues stand in square brackets, D forms with d. Residues, ends and D or L forms follow the SMILES beside them. *: point of attachment. X2 = CC[C@H](C)CCCCC(=O)*; Dab = NCC[C@H](N)C(=O)O
Please answer using one outcome listed in active, inactive

Illustrative cases are given below, each with its answer.
CCCCC(=O)N(Cc1ccc(-c2ccccc2-c2nn[nH]n2)cc1)[C@@H](C(=O)O)C(C)C ... inactive
COc1ccc2c(=O)c(C)c(-c3ccccc3)oc2c1CN(C)C ... inactive
FCOC(C(F)(F)F)C(F)(F)F ... inactive
N#Cc1ccc2c(c1)N(CCCN1CCC(O)CC1)c1ccccc1S2 ... inactive
COC(F)(F)C(Cl)Cl ... inactive

Status in this test for `COc1cc2c(cc1OC)[C@@H](c1ccccc1)CN(C)CC2` ? inactive

Status in this test for `C[C@@H]1C[C@H]2[C@@H]3CCC4=CC(=O)C=C[C@]4(C)[C@@]3(F)[C@@H](O)C[C@]2(C)[C@@]1(O)C(=O)COC(=O)c1cccc(S(=O)(=O)O)c1` ? inactive

Status in this test for `CCCCC/C=C\C/C=C\C/C=C\CCCCC(=O)O` ? inactive

Status in this test for CCC(C)C(C(=O)OCC[N+](C)(CC)CC)c1ccccc1 (stereo not drawn) ? inactive

Status in this test for CC(=O)N(CC(C)C(=O)O)c1c(I)cc(I)c(N)c1I (stereo not drawn) ? inactive

Status in this test for CC(C)[C@H](N)C(=O)OCC(CO)OCn1cnc2c(=O)[nH]c(N)nc21 (stereo partly drawn) ? inactive

Status in this test for CN(C)CCOc1ccccc1Cc1ccccc1 (tested in a mixture with another compound) ? inactive

Status in this test for CC(CN1c2ccccc2Sc2cccnc21)N(C)C (stereo not drawn) ? inactive

Status in this test for `[O]=[Bi][O][Bi]=[O]` ? inactive

Status in this test for `OC[C@H]1O[C@@H](n2cnc3c2NC=NC[C@H]3O)C[C@@H]1O` ? inactive

Status in this test for `CCCC1([C@H](O)C/C=C/[C@H]2[C@H](O)CC(=O)[C@@H]2CCCCCCC(=O)OC)CCC1` ? inactive

Status in this test for `CN1CCC(OC(=O)C(Oc2ccc(Cl)cc2)Oc2ccc(Cl)cc2)CC1` ? inactive

Status in this test for `Cn1cc(NC(=O)c2cc(NC(=O)c3cc(NC=O)cn3C)cn2C)cc1C(=O)NCCC(=N)N` ? inactive

Status in this test for `CC(=O)N[C@@H](CC(=O)N[C@@H](CCC(=O)O)C(=O)O)C(=O)O` ? inactive

Status in this test for `CNC(=O)[C@H](Cc1c[nH]c2ccccc12)NC(=O)[C@@H](CC(=O)NO)CC(C)C` ? active

Status in this test for `CC(=O)Oc1cccc(C(=O)O)c1OC(C)=O` ? inactive

Status in this test for C[C@@H]1C[C@H]2C3C[C@H](F)C4=CC(=O)C=CC4(C)[C@@]3(F)[C@@H](O)CC2(C)[C@@]1(O)C(=O)COC(=O)C(C)(C)C (stereo partly drawn) ? inactive

Status in this test for `CN[C@H]1CCc2cc(OC)c(OC)c(OC)c2-c2ccc(OC)c(=O)cc21` ? inactive

Status in this test for `C[C@@H]1C/C=C/C=C/C=C/C=C/[C@H](O[C@@H]2O[C@H](C)[C@@H](O)[C@H](N)[C@@H]2O)C[C@@H]2O[C@](O)(C[C@@H](O)C[C@H]3O[C@@H]3/C=C/C(=O)O1)C[C@H](O)[C@H]2C(=O)O` ? inactive

Status in this test for `O=C(CO)[C@@H](O)[C@H](O)[C@@H](O)C(=O)O` ? inactive

Status in this test for CC[C@H](C)CCCCC(=O)N[C@@H](CCN)C(=O)N[C@H](C(=O)N[C@@H](CCN)C(=O)N[C@H]1CCNC(=O)[C@H]([C@@H](C)O)NC(=O)[C@H](CCN)NC(=O)[C@H](CCN)NC(=O)[C@H](CC(C)C)NC(=O)[C@@H](CC(C)C)NC(=O)[C@H](CCN)NC1=O)[C@@H](C)O (X2-[Dab]T[Dab][Dab][Dab][dL]L[Dab][Dab]T; lactam 4-C) ? inactive

###

test: qHTS assay to identify small molecule antagonists of the thyroid receptor (TR) signaling pathway (AID 743065); conditions: GH3.TRE-Luc, T3-stimulated luciferase inhibition, 23.5 h; series mostly up to 70.3 µM; also: nearly all actives have a fitted effect of over 55% in size
Inconclusive results are not listed. The source made the active and inactive calls. The call rests on the fitted dose curve; in most records, active means well fitted inhibition curve with a large enough effect in the repeat runs; inconclusive means weak or mixed curves; inactive means no such curve, though single readings can be large or run the other way.
Please answer using one outcome listed in True (active), False (inactive)

Illustrative cases are given below, each with its answer.
CC(C)(C)CC(C)(C)c1cc(Cc2cc(C(C)(C)CC(C)(C)C)cc(-n3nc4ccccc4n3)c2O)c(O)c(-n2nc3ccccc3n2)c1 ... False
C[C@@H]1CCC2[C@@H](C)[C@@H](O)O[C@@H]3O[C@@]4(C)CC[C@@H]1[C@@]23OO4 (some centres not stated) ... True
CC1CS(=O)(=O)CCN1/N=C/c1ccc([N+](=O)[O-])o1 (configuration not stated) ... False
CCN(CC)CCOC(=O)c1cccnc1 ... False
COc1cc2c(cc1OC)CC(=O)N(CCCN(C)C[C@H]1Cc3cc(OC)c(OC)cc31)CC2 ... False

Moving on to another molecule below.
Status in this test for `CCN(CC)CCOCCOC(=O)C(CC)(CC)c1ccccc1` ? True

###

target: Estrogen receptor (Homo sapiens); test: qHTS assay to identify small molecule agonists of the estrogen receptor alpha (ER-alpha) signaling pathway (AID 743075); conditions: HEK293 ER-alpha-UAS-bla, beta-lactamase FRET ratio, 18 h; series mostly up to 70.1 µM;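 also: HEK293 GripTite cells with ER-alpha and UAS-driven beta-lactamase reporter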
Records with an inconclusive call do not appear. The source made the active and inactive calls. The call rests on the fitted dose curve.
Please answer using one outcome listed in T = active, F = inactive

Status in this test for `C#CCOc1ccc2c(C)cc(=O)oc2c1` ? F

###

target: Estrogen receptor (Homo sapiens); assay: qHTS assay to identify small molecule agonists of the estrogen receptor alpha (ER-alpha) signaling pathway (AID 743075); conditions: HEK293 ER-alpha-UAS-bla, beta-lactamase FRET ratio, 18 h; series mostly up to 70.1 µM;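 also: HEK293 GripTite cells with ER-alpha and UAS-driven beta-lactamase reporter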
Calls of active or inactive are those of the source. Calls follow the shape of the full dose curve.
Please answer using one outcome listed in active, inactive

Cc1onc(-c2ccccc2)c1C(=O)N[C@@H]1C(=O)N2[C@@H]1SC(C)(C)[C@@H]2C(=O)O ... inactive

Status in this test for `CCOC(=O)[C@H](CS)NCCN[C@@H](CS)C(=O)OCC` ? inactive

Status in this test for `CC(=O)O[C@H]1C[C@@]2(C)[C@@H](C[C@@H](O)[C@H]3[C@@]4(C)CC[C@@H](O)[C@@H](C)[C@@H]4CC[C@@]32C)/C1=C(\CCC=C(C)C)C(=O)O` ? inactive

Status in this test for NC(N)=NCC1COc2ccccc2O1 (stereo not given) ? inactive

Status in this test for CC(=O)Oc1c(C)cc(OCC(O)CNC(C)C)c(C)c1C (stereo not given) ? active

###

Assay: qHTS assay to identify small molecule antagonists of the glucocorticoid receptor (GR) signaling pathway - cell viability counter screen (AID 720693); also: nearly all actives have a fitted effect of over 55% in size
Conditions: GR-bla HeLa viability, CellTiter-Glo luminescence, 18 h, with 5 nM dexamethasone present; series mostly up to 58.5 µM
Text: National Center for Advancing Translational Sciences [NCATS] NIH Chemical Genomics Center [NCGC] U.S. Environmental Protection Agency [EPA] National Institutes of Environmental Health Sciences [NIEHS] National Toxicology Program [NTP] U.S. Food and Drug Administration [FDA] The Glucocorticoid receptor (GR) is one of the members of the nuclear receptor family of ligand-dependent transcription factors. […] The activation of the reporter gene under culture conditions can be detected by fluorescence intensity. […]
Inconclusive results are not listed. Active and inactive are the calls of the source. The call rests on the fitted dose curve; in most records, active means well fitted cell-killing curve with a large enough effect in the repeat runs; inconclusive means weak or mixed curves, or effect the other way; inactive means no such curve, though single readings can be large or run the other way.
Please answer using one outcome listed in class 1 = active, class 0 = inactive

Status in this test for COc1cc(NCCCC(C)N)c2ncccc2c1 (stereo not given) ? class 0

Status in this test for `O=C(COc1ccc(Cl)cc1)OCCNC12CC3CC(CC(C3)C1)C2` ? class 0

Status in this test for `O=C(O)C1=C(CSc2nnnn2CS(=O)(=O)O)CS[C@@H]2[C@H](NC(=O)[C@H](O)c3ccccc3)C(=O)N12` ? class 0

Status in this test for `CC(=O)O[C@H]1CC[C@@]2(C)C(=CC[C@@H]3[C@@H]2CC[C@]2(C)C(c4cccnc4)=CC[C@@H]32)C1` ? class 0

Status in this test for `O=C(OC[C@H]1O[C@](O)(COC(=O)c2cccnc2)[C@@H](OC(=O)c2cccnc2)[C@@H]1OC(=O)c1cccnc1)c1cccnc1` ? class 0

Status in this test for `O=[N+]([O-])c1ccc(Oc2ccc(N=C=S)cc2)cc1` ? class 0

Status in this test for CCC(C)[C@@H](N)C(=O)O (stereo not given in full) ? class 0

From: PubChem BioAssay (Tox21)
